soluble fraction (log2) values, listed per item
experiment: soluble fraction after stress (log2 fold change); higher = more stays soluble; pooled small domains, quantitative proteomics
experimental.conditions: stress: 50 degC
Just the number, please, no unit attached.

Data request, read-out soluble fraction (log2), for HMETLYGQIVNDIMEKIESNAWPVGYVIPTESDFQKQYGVSRATVRNAILKLAHLGYLVRKKGSGTYVTRP -0.975

Data request, read-out soluble fraction (log2), for HMSGYFSDKKLNELFEQYLIMREKKGKPVVGYQLKILIDRLNQVAANTKEKIEVVSNAIAGDWNTFYPIKR -0.621

---

experiment: soluble fraction after stress (log2 fold change); higher = more stays soluble; pooled small domains, quantitative proteomics
experimental.conditions: stress: 50 degC
Decide by soluble fraction (log2): equal to or exceeding -0.05 means true (1), less means false (0).

Is soluble fraction (log2) for HMVELPDLIGKSKRLAFTQLEISGLKIGKIIYEPDLAKDAVLKILYNGKIVKAGEQLPRFATVDLVLG at or above -0.05? true (1)

Is soluble fraction (log2) for HMKEVKRDQVIEAARKLFHQFGFKKVSMDEIAKEAGVTKKTIYMYFESKEELLKYFIQEEISN at or above -0.05? false (0)

Is soluble fraction (log2) for HMLSTQEYIKKNIENGSWKVGEKIPSENNLTEILGVSRASIRVAIQQFIALDVLNSIHGKGTFVKTNNIMG at or above -0.05? true (1)

---

experiment: soluble fraction after stress (log2 fold change); higher = more stays soluble; pooled small domains, quantitative proteomics
experimental.conditions: stress: 50 degC
measured.property: soluble fraction (log2)
Just the number, please, no unit attached.

Recorded results for 3 sequences are shown here.
{"construct.sequence": "HMKKIFIDAPLDTMITIPKDTTHHLLTVFRHKMEKPVLVGGSDGRTGVYQIQDVVDGEASAKLVGDIQ", "soluble fraction (log2)": 0.514}
{"construct.sequence": "HMRQQQISAAIKTSVNGTVDYYVRRLPERDPRGDFLEVWDDLQKVIQAAHGIQVSHDELYEYFRRLK", "soluble fraction (log2)": -0.337}
{"construct.sequence": "HMPIRMLQVQKTNTGYLNVRDTPSVSGALIGKVFPGDMLSSTEERDGWFLVAVPQGGTGWVSGDYVKTTS", "soluble fraction (log2)": -0.0387}

Could you now look at the following sequence, please?
Data request, read-out soluble fraction (log2), for HMSMDAVSLANRLLRFFQKRPGRKFTAADLAFETGMNERTGKSLVTSALEILSRTNQIEADGDGFRLKM 0.138

---

experiment: soluble fraction after stress (log2 fold change); higher = more stays soluble; pooled small domains, quantitative proteomics
experimental.conditions: stress: 50 degC
soluble fraction (log2) values, listed per item
Just the number, please, no unit attached.

{"construct.sequence": "HMENEFEAYSDGSSIQLNDPSKATYVVFDRQGRLLHLFQNHSLSSLSIERKNQILIITRETADGVSVKKIV", "soluble fraction (log2)": -0.415}

Data request, read-out soluble fraction (log2), for HMITAEQENILFEKASDDISNNIINKGIWTKAYSQAGGDESKQKAIYIDLLVNYYKMLIKAGEEFEDI -1.39

---

experiment: soluble fraction after stress (log2 fold change); higher = more stays soluble; pooled small domains, quantitative proteomics
experimental.conditions: stress: 50 degC
soluble fraction (log2) values, listed per item
Just the number, please, no unit attached.

Recorded results for 7 sequences are shown here.
{"construct.sequence": "HMLKPVVLLGARGLTDAVEKEVERALDEHGLIKIHVPSDDREERDEIYTTLADKLNAARIQAIGKMLVLW", "soluble fraction (log2)": -0.162}
{"construct.sequence": "HMLAGVDTLADRELEVFQMLGRGKSTKEIAQVLNLGESTVETYRARIKEKLQLRSAAELYLRAGQWVRDHG", "soluble fraction (log2)": -0.184}
{"construct.sequence": "HMPEQLLNTRIPLEFAGRRFDASLAELFPDYSRSRLAAWIKDGAARLDGETVAPRHTVRGGEQVEILVRM", "soluble fraction (log2)": -0.238}
{"construct.sequence": "HMENLSFNINSEEEGQRIDKYLSVMIEGKSRSFVQGLIEEKKVKANSKVIKSNYKLKKGDFIEVEVPEPV", "soluble fraction (log2)": 0.27}
{"construct.sequence": "HMNMVSGHLQVKKGYYYAVLSFYDSKNKRHVKYISTGLPEKGNKRKAEAELVKIRNAFEPPAE", "soluble fraction (log2)": -0.338}
{"construct.sequence": "HMFDPTDLPEKQLMVYEIIKSNNGINMTNIASLLGFNKTTVDNAIRALKKKEIVVFKGTNRSGGYFNT", "soluble fraction (log2)": -1.66}
{"construct.sequence": "HMHTGEVVNGKVIDVKEDQIILNVGFKSDGIITRSEYSNDNSLDLRTVVNVGDDMEAKVLKINDGEGQVLL", "soluble fraction (log2)": -0.185}

Could you now look at the following sequence, please?
Data request, read-out soluble fraction (log2), for HMAKSPYDVLGLKEDAPFDEVKKRYRELVKKYHPDILMGRGESEEMIEKSTRKLQEINEAYETIKQRA 0.118

---

experiment: soluble fraction after stress (log2 fold change); higher = more stays soluble; pooled small domains, quantitative proteomics
experimental.conditions: stress: 50 degC
Decide by soluble fraction (log2): equal to or exceeding -0.3 means true (1), less means false (0).

Worked examples follow.
{"construct.sequence": "HMIALLRLGTAPDIKAQAPLATILARHNGEMSAKDLWQRFGGEIDTFYAQLKTEVAHGWILEPT", "category": "false (0)"}
{"construct.sequence": "HMEAVIENAAIIKQNSGGYAVRATVNGVDLGMKPVERATALLYFSLTDKLEKDRLLSHTLQKTYGDLSA", "category": "true (1)"}

Is soluble fraction (log2) for HMSSEITYDKFIEMVEEGNVKEVTLQSDTLTIKPKHQDSAFSEKEYYTRQMESADQLTERLEGTGIEFHS at or above -0.3? true (1)

Is soluble fraction (log2) for HMTRRVIRAPAAGIMRSNVKLGDLVKEGDVIAWIGEHEIKAPLTGMVRGLLNDGLAVVGGFKIGDI at or above -0.3? true (1)

Is soluble fraction (log2) for HMESPLEQLTNRELQTLQMLGKGLSTKQIAAQLNLSVKTVETYRENLKRKLNLDSGSELIRYAIHRSNE at or above -0.3? true (1)

Is soluble fraction (log2) for HMSALTELPVKTVNGKKYHYYVVKQHETVYALSKRFGITPEQLIKYNPSAEDGLQIDQELLFPATEI at or above -0.3? true (1)

Is soluble fraction (log2) for HMSELPLTQKVAIVMVALGEEASGEVMKHLSDYEIEEITQAIAGLKNISVELMDQILEEYEQHLIAG at or above -0.3? false (0)

---

experiment: soluble fraction after stress (log2 fold change); higher = more stays soluble; pooled small domains, quantitative proteomics
experimental.conditions: stress: 50 degC
Decide by soluble fraction (log2): equal to or exceeding -1 means condition met, less means condition not met.

{"construct.sequence": "HMGFKLQRYTTFVVERLKKYQDTPAAQMHDLLKEHYPDFPAVSPKTVYNYVMKIRQEHGLPAV", "category": "condition not met"}
{"construct.sequence": "HMRAGHDFEALKHIESSLDKHLTDEGIKIKSEKRGAIVARWYQSHVEGREVTDDDVHTWIELFF", "category": "condition not met"}
{"construct.sequence": "HMIRSNLAEQAYAQLKALIHDFQLLPGDRFSENEMGTRLGVSRTPVREALFRLRNEGFLEVESKAGWYVK", "category": "condition not met"}
{"construct.sequence": "HMTISAQAITPRLEVIKNFVLMEEWDAAQTQLEKLRSFTEIWSLDPLFSAMKKKDGQKISDWITGFIKDNM", "category": "condition not met"}
{"construct.sequence": "HMATYNEVLKRLIEERKRLGLSQQEMARLVHITQSNYSKVEKGLHRLSYEELKYLSKANVDIFYILT", "category": "condition met"}
{"construct.sequence": "HMNALVAKYKQGVTEEQQQGQGIIIIKRVVVRDQEAWVYEKKIFDWGGVSYFRDKQRITASTFNQETAL", "category": "condition not met"}

Is soluble fraction (log2) for HMGWEDLVGKTAVVKVALAPVGMVFFRGEFWSAISETGRIEPGEEVTISRIDGLKLYVTKKRIM at or above -1? condition met

Is soluble fraction (log2) for HMRKATEVPFTAFKDSIENSHGKLSKAGLARHLADEYGMSQRNMERRINNLIDNKTIKYGNEGGLVWIG at or above -1? condition met

---

experiment: soluble fraction after stress (log2 fold change); higher = more stays soluble; pooled small domains, quantitative proteomics
experimental.conditions: stress: 50 degC
measured.property: soluble fraction (log2)

Recorded results for 5 sequences are shown here.
{"construct.sequence": "HMIPKDKQAWIALTYIYGVGRTTSMEILKKAQVGEEIRMKDLTEEEVTRIRNIIDKEYEVEGDLRRN", "result": -0.292}
{"construct.sequence": "HMDLIEVLAQDTIKKIYNTYVAYKNKVDVFYVAFSGGKDSIVTLDLVQRTLPHNEFKVLFGDTGM", "result": 0.133}
{"construct.sequence": "HMKGKWKPIILWQLSKAPQSLSGLRHSIAGISQKMLIQHLNELIHFGFVVRTTFEGYPLKVEYDLTDRGR", "result": -0.231}
{"construct.sequence": "HMKITFNPVSSGRLDIILAEKTGYTRSYVKQLVEKQAVTINGEAAKKSGQNVKAGDEIALDEP", "result": 0.0957}
{"construct.sequence": "HMFEFFKGIYSISLLKKDGIFFVTFKDENKEAVKHIFPEKPTALELGIKVMEMFEYKERYDGII", "result": -0.227}

Data request, read-out soluble fraction (log2), for HMTTEPYILTRMPDGSIKAEPNLNYKGPEQKPGSNIQVKGADGRIYLVPIDGQGKPGKPQLVD 0.116

Data request, read-out soluble fraction (log2), for HMTITDDETHKVLEEGASRMSEGLTFRDLVDLDRLHLTARGVIQKVLNENRIDADVDTIANMAQKLVARVS -0.0539

Data request, read-out soluble fraction (log2), for HMPRYQQIARQLKTAIEHGELKPGARLPSSRTWSQELGISRSTVESAYTELVAQGWLERRGQAGTFVSAQL -0.749

Data request, read-out soluble fraction (log2), for HMTKSIDFDFREDGVYIKADKDVTIVDIVTKIDLRRIQSVDLTKIKQMLEIGSLDNWIKIAEPQMEK 0.0472

Data request, read-out soluble fraction (log2), for HMYYHQIIGLDVVDENGNTLGKIKEILSPGANDVWVVKRKQKNDLLLPVIDDVIKDVDLAAGKVHVELLEG -0.0975

Data request, read-out soluble fraction (log2), for HMYSQIGYGSSGSDVRKLQEILNGKGYNLSVDGQFGAKTKSAVRDYQSKNGLSVDGIVGVNTWGKLT -0.0169

Data request, read-out soluble fraction (log2), for HMFINITAITGNNYNTPDAARNALPNTYNKKIGLVFTYRDLTNRYRVYLYNSETSNYIPLDSYM -3.39

Data request, read-out soluble fraction (log2), for HMITKAIELAEEAEKETVWLGVWEHNHPAQKFYQSLGFVKTDEHDFYMGNERHTDYTMTKQLK -0.138
